Value source: ChEMBL document CHEMBL2062460

tested on: Staphylococcus epidermidis; assay: Antibacterial activity against Staphylococcus epidermidis ATCC 12228 after 18 hrs by twofold serial agar dilution technique; type: functional; conditions: ATCC 12228, 18 h
Catalogue of MIC readings, one per entry.

{"columns": ["Compound", "Endpoint Unit", "MIC"],
 "data": [
  ["Fc1ccc(NC(=S)Nc2nc[nH]n2)cc1", "µg/mL", 25],
  ["S=C(Nc1nc[nH]n1)Nc1ccccc1Br", "µg/mL", 25],
  ["S=C(Nc1ccc(Cl)cc1)Nc1nc[nH]n1", "µg/mL", 25],
  ["S=C(Nc1ccccc1)Nc1nc[nH]n1", "µg/mL", 50],
  ["O=C(O)c1cn(C2CC2)c2cc(N3CCNCC3)c(F)cc2c1=O [CIPROFLOXACIN]", "µg/mL", 0.5],
  ["Fc1cccc(NC(=S)Nc2nc[nH]n2)c1", "µg/mL", 50],
  ["Fc1ccccc1NC(=S)Nc1nc[nH]n1", "µg/mL", 200],
  ["S=C(Nc1ccc(Br)cc1)Nc1nc[nH]n1", "µg/mL", 25],
  ["S=C(Nc1ccc(I)cc1)Nc1nc[nH]n1", "µg/mL", 25]
]}

----------
Catalogue of pEC50 readings, one per entry.
tested on: Human immunodeficiency virus 1; assay: Antiviral activity against HIV1 infected in human MT4 cells assessed as virus-induced cytopathogenicity after 4 days by MTT assay; type: functional, organism-based; settings: Human immunodeficiency virus 1, MT4, 96 h
pEC50: −log10 of the molar value.

{"columns": ["Smiles Record", "Tested System", "pEC50"],
 "data": [
  ["S=C(Nc1ccc(I)cc1)Nc1nc[nH]n1", "Human immunodeficiency virus 1", "< 4.34"],
  ["COc1ccc(NC(=S)Nc2nc[nH]n2)cc1", "Human immunodeficiency virus 1", "< 4.00"],
  ["Nc1ncnn1/C(S)=N/Cc1ccccc1", "Human immunodeficiency virus 1", "< 5.13"],
  ["Nc1ncnn1/C(S)=N/C1CCCCC1", "Human immunodeficiency virus 1", "< 4.00"],
  ["S=C(Nc1ccccc1)Nc1nc[nH]n1", "Human immunodeficiency virus 1", "< 4.00"],
  ["S=C(Nc1ccc(Cl)c(Cl)c1)Nc1nc[nH]n1", "Human immunodeficiency virus 1", "< 4.33"],
  ["S=C(Nc1nc[nH]n1)Nc1ccccc1Br", "Human immunodeficiency virus 1", "< 4.00"],
  ["S=C(Nc1ccc(Br)cc1)Nc1nc[nH]n1", "Human immunodeficiency virus 1", "< 4.00"],
  ["O=C(NC(=S)Nc1nc[nH]n1)c1ccccc1", "Human immunodeficiency virus 1", "< 4.00"],
  ["S=C(Nc1ccc(Cl)cc1)Nc1nc[nH]n1", "Human immunodeficiency virus 1", "< 4.33"],
  ["Fc1ccc(NC(=S)Nc2nc[nH]n2)cc1", "Human immunodeficiency virus 1", "< 4.00"],
  ["Cc1ccc(NC(=S)Nc2nc[nH]n2)cc1", "Human immunodeficiency virus 1", "< 4.30"],
  ["S=C(Nc1cccc(Br)c1)Nc1nc[nH]n1", "Human immunodeficiency virus 1", "< 4.30"]
]}

----------
tested on: Staphylococcus aureus; assay: Antibacterial activity against methicillin-resistant Staphylococcus aureus clinical isolate 307/08 after 18 hrs by twofold serial agar dilution technique; format: functional; conditions: clinical isolate 307/08, 18 h

{"columns": ["Smiles Record", "MIC"],
 "data": [
  ["Fc1ccc(NC(=S)Nc2nc[nH]n2)cc1", "50 µg/mL"],
  ["S=C(Nc1nc[nH]n1)Nc1ccccc1Br", "50 µg/mL"],
  ["S=C(Nc1ccc(Br)cc1)Nc1nc[nH]n1", "50 µg/mL"],
  ["Fc1cccc(NC(=S)Nc2nc[nH]n2)c1", "12.5 µg/mL"],
  ["Fc1ccccc1NC(=S)Nc1nc[nH]n1", "> 400 µg/mL"],
  ["S=C(Nc1ccc(Cl)cc1)Nc1nc[nH]n1", "25 µg/mL"],
  ["S=C(Nc1ccccc1)Nc1nc[nH]n1", "50 µg/mL"],
  ["S=C(Nc1ccc(I)cc1)Nc1nc[nH]n1", "50 µg/mL"]
]}
